- measuredOn: UniProt P29275
- Sequence (P29275 whole entry): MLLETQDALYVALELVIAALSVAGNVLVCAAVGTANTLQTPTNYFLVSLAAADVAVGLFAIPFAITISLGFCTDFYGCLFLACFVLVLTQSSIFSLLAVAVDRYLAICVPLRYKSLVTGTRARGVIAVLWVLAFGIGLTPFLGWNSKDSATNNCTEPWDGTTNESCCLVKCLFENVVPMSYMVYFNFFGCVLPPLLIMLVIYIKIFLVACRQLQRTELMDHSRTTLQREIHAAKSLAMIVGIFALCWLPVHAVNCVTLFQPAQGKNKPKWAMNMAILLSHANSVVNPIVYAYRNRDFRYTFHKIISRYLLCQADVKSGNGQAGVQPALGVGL
- testName: cAMP HTRF assay for Gs coupled receptor, agonist test
- testSettings: agonist activity; HEK293 cells expressing recombinant human A2B; read-out: A2BAR EC50
measuredAttribute: EC50

Would you please look over these solved cases?
> print(dat)
                                   compound  measuredattribute      result
1  COCCOc1ccc(-c2c(C#N)c(SCc3cccnc3)nc(N3CC(O)C3)c2C#N)cc1               EC50  > 10000 nM
2  COCCOc1ccc(-c2c(C#N)c(SCc3cccnc3)nc(N3CC(F)C3)c2C#N)cc1               EC50  > 10000 nM
3  N#Cc1c(N)nc(OCC2CCCCO2)c(C#N)c1-c1ccc(OC2COC2)cc1 (centres unmarked)               EC50  > 10000 nM

[Q] Recorded EC50 for `N#Cc1c(N)nc(SCC2(O)COC2)c(C#N)c1-c1ccc(OC2COC2)cc1` , please?
[A] > 10000 nM

[Q] Recorded EC50 for `CNc1nc(SCc2cccnc2)c(C#N)c(-c2ccc(OC(F)(F)CO)cc2)c1C#N` , please?
[A] 33.7 nM

[Q] Recorded EC50 for `N#Cc1c(N)nc(SC[C@H]2CCOC2)c(C#N)c1-c1ccc(OC2COC2)cc1` , please?
[A] 118 nM

[Q] Recorded EC50 for `N#Cc1c(N)nc(SCc2n[nH]c3ccccc23)c(C#N)c1-c1ccc(OCCO)cc1` , please?
[A] 108 nM

[Q] Recorded EC50 for `N#Cc1c(N)nc(SCC(N)=O)c(C#N)c1-c1ccc(OCCO)cc1` , please?
[A] 6 nM

Values from patent US20250170112A1
